Let's look at some compounds and their measured melting point.

compound	observed result
C#CCN(C(=O)OCOC(=O)CCCNC(=O)CCCCCCCCCCCCCCCCCCC)[C@@H]1CCc2ccccc21	80 to 82 °C
C#CCN(C(=O)OCOC(=O)Cc1cccc2ccccc12)[C@@H]1CCc2ccccc21	66 to 70 °C
C#CCN(C(=O)OCOC(=O)CC[C@@H](C)C1CCC2C3C(CC[C@@]21C)[C@@]1(C)CC[C@@H](O)C[C@H]1C[C@H]3O)[C@@H]1CCc2ccccc21 (stereo partly shown)	< 50 °C
C#CCN(C(=O)OCOC(=O)CCCCCCCCCCCCCCC)[C@@H]1CCc2ccccc21	< 25 °C
C#CCN(C(=O)OCOC(=O)CCCCCNC(=O)CCCCCCCCCCCCCCCCCCC)[C@@H]1CCc2ccccc21	77.2 to 80.8 °C

Task item: Value lookup for melting point; key = C#CCN(C(=O)OCOC(=O)C(C)(C)C)[C@@H]1CCc2ccccc21
Reply: < 25 °C

Task item: C#CCN(C(=O)OCOC(=O)CC[C@@H](C)C1CCC2C3C[C@H](O)[C@@H]4C[C@H](O)CC[C@]4(C)C3CC[C@@]21C)[C@@H]1CCc2ccccc21 (stereo partly shown) , same question.
Reply: < 50 °C
